system: T1, human-CD40 monomer (human, UniProt P25942 21-193, limits assumed)
T1 construct: also called hCD40-monomer; human-CD40-monomer protein
T1 sequence (P25942 21-193 limits assumed): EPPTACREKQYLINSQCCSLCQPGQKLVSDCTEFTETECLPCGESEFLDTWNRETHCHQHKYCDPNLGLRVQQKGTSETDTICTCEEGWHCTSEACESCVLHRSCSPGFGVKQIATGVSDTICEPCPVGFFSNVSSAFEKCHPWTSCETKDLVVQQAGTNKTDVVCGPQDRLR
procedure-summary: SPR 2 pt screen, Ab on protein A
Would you kindly list kon for each of these binders?
Give bare numbers, in M⁻¹ s⁻¹.

humanized Y1238 hz31 (hz-HC7 / hz-LC1), IgG1.3f (antibody, V domains shown, IgG1.3f heavy constant, common CL; expression supernatant; also called Sup 31) VH: QVQLVQSGAEVVKPGASVKVSCKASGYAFTNYLIEWVRQRPGQGLEWMGVINPGSGGTNYNEKFKGRVTMTADKSSSTAYMQLSRLRSDDTAVYFCARSQLGRRFDYWGQGTLVTVSS VL: DIQMTQSPSSLSASVGDRVTITCKASQDVRTGVAWYQQKPGKAPKLLIYSASYRNTGVPSRFSGSGSGTDFTFTISSLQPEDIATYYCQQHYSPPYTFGGGTKVEIK: 39000

# evaluate next
[Q] What value of kon has been reported for the following binder? humanized Y1238 hz4 (hz-HC1 / hz-LC4), IgG1.3f (antibody, V domains shown, IgG1.3f heavy constant, common CL; expression supernatant; also called Sup 4) VH: QVQLVQSGAEVKKPGASVKVSCKASGYAFTNYLIEWVRQAPGQGLEWMGVINPGSGGTNYNEKFKGRVTMTRDTSISTAYMELSRLRSDDTAVYYCARSQLGRRFDYWGQGTLVTVSS VL: DIQMTQSPSSLSASVGDRVTITCKASQDVRTGVAWYQQKPGQSPKLLIYSASYRNTGVPSRFSGSRSGTDFTFTISSLQAEDIAVYYCQQHYSPPYTFGGGTKVEIK
[A] 48000
